# Tested on: 772245-204-R-J1-PDC complex spheroid growth
# Assay method text: Anticancer human tumor 772245-204-R-J1-PDC patient-derived rhabdomyosarcoma cell line growth inhibition [Asc]
# Particulars: second compound 0.316 µM; first compound 0.01 µM; hits give low values
I'd appreciate it if you could supply viability, T/C values for the items below.

Challenge: Bench note: what viability, T/C did NC1CCC(NC2CC2c2ccccc2)CC1 (configuration not stated) + CNC(C)C(=O)NC1CN(S(=O)(=O)c2cccc(S(=O)(=O)N3CCC4CCC(C(=O)NC(c5ccccc5)c5ccccc5)N4C(=O)C(NC(=O)C(C)NC)C3)c2)CCC2CCC(C(=O)NC(c3ccccc3)c3ccccc3)N2C1=O show?
Response given: 86.9%

Challenge: Bench note: what viability, T/C did NC1CCC(NC2CC2c2ccccc2)CC1 (configuration not stated) + Cc1c(S(C)(=O)=O)c(-c2cc(F)cc(N3CCN(c4ccc(NS(=O)(=O)c5ccc(NC(CCN6CCC(C(=O)OCCCP(=O)(O)O)CC6)CSc6ccccc6)c(S(=O)(=O)C(F)(F)F)c5)cc4)CC3)c2)c(-c2ccc(Cl)cc2)n1C(C)C show?
Response given: 38.2%

Challenge: Bench note: what viability, T/C did Cn1ncnc1[C@H]1c2n[nH]c(=O)c3cc(F)cc(c23)N[C@@H]1c1ccc(F)cc1 + Cc1c(S(C)(=O)=O)c(-c2cc(F)cc(N3CCN(c4ccc(NS(=O)(=O)c5ccc(NC(CCN6CCC(C(=O)OCCCP(=O)(O)O)CC6)CSc6ccccc6)c(S(=O)(=O)C(F)(F)F)c5)cc4)CC3)c2)c(-c2ccc(Cl)cc2)n1C(C)C show?
Response given: 37%

Challenge: Bench note: what viability, T/C did CCN1CCN(Cc2ccc(Nc3ncc(F)c(-c4cc(F)c5nc(C)n(C(C)C)c5c4)n3)nc2)CC1 + Cc1c(S(C)(=O)=O)c(-c2cc(F)cc(N3CCN(c4ccc(NS(=O)(=O)c5ccc(NC(CCN6CCC(C(=O)OCCCP(=O)(O)O)CC6)CSc6ccccc6)c(S(=O)(=O)C(F)(F)F)c5)cc4)CC3)c2)c(-c2ccc(Cl)cc2)n1C(C)C show?
Response given: 58.1%

Challenge: Bench note: what viability, T/C did O=C(c1ccc(F)c(F)c1Nc1ccc(I)cc1F)N1CC(O)([C@@H]2CCCCN2)C1 + Cc1c(S(C)(=O)=O)c(-c2cc(F)cc(N3CCN(c4ccc(NS(=O)(=O)c5ccc(NC(CCN6CCC(C(=O)OCCCP(=O)(O)O)CC6)CSc6ccccc6)c(S(=O)(=O)C(F)(F)F)c5)cc4)CC3)c2)c(-c2ccc(Cl)cc2)n1C(C)C show?
Response given: 76.7%

Challenge: Bench note: what viability, T/C did CNC(C)C(=O)NC1CN(S(=O)(=O)c2cccc(S(=O)(=O)N3CCC4CCC(C(=O)NC(c5ccccc5)c5ccccc5)N4C(=O)C(NC(=O)C(C)NC)C3)c2)CCC2CCC(C(=O)NC(c3ccccc3)c3ccccc3)N2C1=O (configuration not stated) + Cc1c(S(C)(=O)=O)c(-c2cc(F)cc(N3CCN(c4ccc(NS(=O)(=O)c5ccc(NC(CCN6CCC(C(=O)OCCCP(=O)(O)O)CC6)CSc6ccccc6)c(S(=O)(=O)C(F)(F)F)c5)cc4)CC3)c2)c(-c2ccc(Cl)cc2)n1C(C)C show?
Response given: 56.5%

Challenge: Bench note: what viability, T/C did COc1c(OCCCN2CCOCC2)ccc2c3n(c(=NC(=O)c4cnc(N)nc4)nc12)CCN3 + Cc1c(S(C)(=O)=O)c(-c2cc(F)cc(N3CCN(c4ccc(NS(=O)(=O)c5ccc(NC(CCN6CCC(C(=O)OCCCP(=O)(O)O)CC6)CSc6ccccc6)c(S(=O)(=O)C(F)(F)F)c5)cc4)CC3)c2)c(-c2ccc(Cl)cc2)n1C(C)C show?
Response given: 74.5%

====

# Tested on: 772245-204-R-J1-PDC complex spheroid growth
# Assay method text: Anticancer human tumor 772245-204-R-J1-PDC cell line growth inhibition [Asc];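 further: compound exposure lasted seven days; 100% = DMSO vehicle control viability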
# Particulars: second compound 10 µM; first compound 0.00316 µM; hits give low values
Assay endpoint: viability, T/C (%)
Your answer is read as %, so omit the unit and give the number.

Challenge: Bench note: what viability, T/C did COc1c(OCCCN2CCOCC2)ccc2c3n(c(=NC(=O)c4cnc(N)nc4)nc12)CCN3 + Cc1c(S(C)(=O)=O)c(-c2cc(F)cc(N3CCN(c4ccc(NS(=O)(=O)c5ccc(NC(CCN6CCC(C(=O)OCCCP(=O)(O)O)CC6)CSc6ccccc6)c(S(=O)(=O)C(F)(F)F)c5)cc4)CC3)c2)c(-c2ccc(Cl)cc2)n1C(C)C show?
Response given: 49.3

Challenge: Bench note: what viability, T/C did CCN1CCN(Cc2ccc(Nc3ncc(F)c(-c4cc(F)c5nc(C)n(C(C)C)c5c4)n3)nc2)CC1 + Cc1c(S(C)(=O)=O)c(-c2cc(F)cc(N3CCN(c4ccc(NS(=O)(=O)c5ccc(NC(CCN6CCC(C(=O)OCCCP(=O)(O)O)CC6)CSc6ccccc6)c(S(=O)(=O)C(F)(F)F)c5)cc4)CC3)c2)c(-c2ccc(Cl)cc2)n1C(C)C show?
Response given: 49.7

Challenge: Bench note: what viability, T/C did Cn1ncnc1[C@H]1c2n[nH]c(=O)c3cc(F)cc(c23)N[C@@H]1c1ccc(F)cc1 + Cc1c(S(C)(=O)=O)c(-c2cc(F)cc(N3CCN(c4ccc(NS(=O)(=O)c5ccc(NC(CCN6CCC(C(=O)OCCCP(=O)(O)O)CC6)CSc6ccccc6)c(S(=O)(=O)C(F)(F)F)c5)cc4)CC3)c2)c(-c2ccc(Cl)cc2)n1C(C)C show?
Response given: 27.7

Challenge: Bench note: what viability, T/C did NC1CCC(NC2CC2c2ccccc2)CC1 (stereo unspecified) + Cc1c(S(C)(=O)=O)c(-c2cc(F)cc(N3CCN(c4ccc(NS(=O)(=O)c5ccc(NC(CCN6CCC(C(=O)OCCCP(=O)(O)O)CC6)CSc6ccccc6)c(S(=O)(=O)C(F)(F)F)c5)cc4)CC3)c2)c(-c2ccc(Cl)cc2)n1C(C)C show?
Response given: 15.8

Challenge: Bench note: what viability, T/C did O=C(c1ccc(F)c(F)c1Nc1ccc(I)cc1F)N1CC(O)([C@@H]2CCCCN2)C1 + Cc1c(S(C)(=O)=O)c(-c2cc(F)cc(N3CCN(c4ccc(NS(=O)(=O)c5ccc(NC(CCN6CCC(C(=O)OCCCP(=O)(O)O)CC6)CSc6ccccc6)c(S(=O)(=O)C(F)(F)F)c5)cc4)CC3)c2)c(-c2ccc(Cl)cc2)n1C(C)C show?
Response given: 40.2

Challenge: Bench note: what viability, T/C did CNC(C)C(=O)NC1CN(S(=O)(=O)c2cccc(S(=O)(=O)N3CCC4CCC(C(=O)NC(c5ccccc5)c5ccccc5)N4C(=O)C(NC(=O)C(C)NC)C3)c2)CCC2CCC(C(=O)NC(c3ccccc3)c3ccccc3)N2C1=O (stereo unspecified) + Cc1c(S(C)(=O)=O)c(-c2cc(F)cc(N3CCN(c4ccc(NS(=O)(=O)c5ccc(NC(CCN6CCC(C(=O)OCCCP(=O)(O)O)CC6)CSc6ccccc6)c(S(=O)(=O)C(F)(F)F)c5)cc4)CC3)c2)c(-c2ccc(Cl)cc2)n1C(C)C show?
Response given: 32.2

====

# System: 772245-204-R-J1-PDC complex spheroid growth
# Assay method text: Anticancer human tumor 772245-204-R-J1-PDC cell line growth inhibition [Asc];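 further: compound exposure lasted seven days; 100% = DMSO vehicle control viability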
# Particulars: second compound 0.1 µM; first compound 0.0949 µM; hits give low values
I'd appreciate it if you could supply viability, T/C values for the items below.
Your answer is read as %, so omit the unit and give the number.

Challenge: Bench note: what viability, T/C did CCN1C(C(=O)NC23CCC(C(=O)O)(CC2)CC3)C(c2cccc(Cl)c2F)C2(C(=O)Nc3cc(Cl)ccc32)C12CCCCC2 (stereo unspecified) + CNC(C)C(=O)NC1CN(S(=O)(=O)c2cccc(S(=O)(=O)N3CCC4CCC(C(=O)NC(c5ccccc5)c5ccccc5)N4C(=O)C(NC(=O)C(C)NC)C3)c2)CCC2CCC(C(=O)NC(c3ccccc3)c3ccccc3)N2C1=O show?
Response given: 88.5

Challenge: Bench note: what viability, T/C did CCN1C(C(=O)NC23CCC(C(=O)O)(CC2)CC3)C(c2cccc(Cl)c2F)C2(C(=O)Nc3cc(Cl)ccc32)C12CCCCC2 (stereo unspecified) + Cc1c(S(C)(=O)=O)c(-c2cc(F)cc(N3CCN(c4ccc(NS(=O)(=O)c5ccc(NC(CCN6CCC(C(=O)OCCCP(=O)(O)O)CC6)CSc6ccccc6)c(S(=O)(=O)C(F)(F)F)c5)cc4)CC3)c2)c(-c2ccc(Cl)cc2)n1C(C)C show?
Response given: 71.5

Challenge: Bench note: what viability, T/C did Cc1nc(N2CCC3(CC2)COC(C)C3N)c(CO)nc1Sc1ccnc(N)c1Cl (stereo unspecified) + CNC(C)C(=O)NC1CN(S(=O)(=O)c2cccc(S(=O)(=O)N3CCC4CCC(C(=O)NC(c5ccccc5)c5ccccc5)N4C(=O)C(NC(=O)C(C)NC)C3)c2)CCC2CCC(C(=O)NC(c3ccccc3)c3ccccc3)N2C1=O show?
Response given: 88.4

Challenge: Bench note: what viability, T/C did NC(=O)C(=Cn1cnc(-c2cc(C(F)(F)F)cc(C(F)(F)F)c2)n1)c1cncnc1 + CNC(C)C(=O)NC1CN(S(=O)(=O)c2cccc(S(=O)(=O)N3CCC4CCC(C(=O)NC(c5ccccc5)c5ccccc5)N4C(=O)C(NC(=O)C(C)NC)C3)c2)CCC2CCC(C(=O)NC(c3ccccc3)c3ccccc3)N2C1=O show?
Response given: 57.3

Challenge: Bench note: what viability, T/C did Cc1nc(N2CCC3(CC2)COC(C)C3N)c(CO)nc1Sc1ccnc(N)c1Cl (stereo unspecified) + Cc1c(S(C)(=O)=O)c(-c2cc(F)cc(N3CCN(c4ccc(NS(=O)(=O)c5ccc(NC(CCN6CCC(C(=O)OCCCP(=O)(O)O)CC6)CSc6ccccc6)c(S(=O)(=O)C(F)(F)F)c5)cc4)CC3)c2)c(-c2ccc(Cl)cc2)n1C(C)C show?
Response given: 85

Challenge: Bench note: what viability, T/C did NC(=O)C(=Cn1cnc(-c2cc(C(F)(F)F)cc(C(F)(F)F)c2)n1)c1cncnc1 + Cc1c(S(C)(=O)=O)c(-c2cc(F)cc(N3CCN(c4ccc(NS(=O)(=O)c5ccc(NC(CCN6CCC(C(=O)OCCCP(=O)(O)O)CC6)CSc6ccccc6)c(S(=O)(=O)C(F)(F)F)c5)cc4)CC3)c2)c(-c2ccc(Cl)cc2)n1C(C)C show?
Response given: 29.6

Data origin: PubChem BioAssay AID1963433
